Each recorded value in this set is attributed to paper PMC8053128.

Recorded measurements of pKd, one per entry
target: MtrR H105Y (Neisseria gonorrhoeae, UniProt P39897 1-210, H105Y); test: fluorescence polarization; FP: 20 mM Tris-HCl pH 7.5, 100 mM NaCl, 2.5% glycerol, 1 mM TCEP, 1 ug BSA, 1 ug poly(dI-dC), 1 nM 5'-fluorescein DNA; temperature not stated; MtrR concentration as dimer; conditions: protein: recombinant; tags: N-terminal His6 removed by TEV (pMCSG7); chain copies: 2; label: 5'-fluorescein
pKd: −log10 of the molar value.
measure: pKd

binder	measure	measurement
mtrCDE 21mer (dsDNA) DNA 1: TATCCGTGCAATCGTGTATGT DNA 2: ACATACACGATTGCACGGATA	pKd	6.19
rpoH 27mer (dsDNA) DNA 1: TACATACGTGGTTGTATGTAAACGGCC DNA 2: GGCCGTTTACATACAACCACGTATGTA	pKd	6.47
GpY 27mer (dsDNA) DNA 1: TACATAGCTGGTGTTATGTAAACGGCC DNA 2: GGCCGTTTACATAACACCAGCTATGTA	pKd	6.07
